biological target: SYK (human); assay: KINOMEscan competition binding; settings: compound 10.0 µM
experimental.readout: kinase still bound, per cent of control (%)
Field format: number, assumed %, no unit text.

input: Field: kinase still bound, per cent of control (SYK (human)). Entry: `O=C1Nc2ccc(I)cc2/C1=C/c1cc(Br)c(O)c(Br)c1`
output: 78

input: Return kinase still bound, per cent of control measured with SYK (human) given this compound: `CCCS(=O)(=O)Nc1ccc(F)c(C(=O)c2c[nH]c3ncc(-c4ccc(Cl)cc4)cc23)c1F`
output: 66

input: Item `Cc1ccc2nc(NCCN)c3ncc(C)n3c2c1` with SYK (human) - kinase still bound, per cent of control?
output: 100

input: Missing value: kinase still bound, per cent of control, SYK (human), entry `CCN1CCN(Cc2ccc(Nc3ncc4c(n3)N(C)c3ccccc3C(=O)N4C)cc2C(F)(F)F)CC1` . Fill in?
output: 78

input: Form field: kinase still bound, per cent of control recorded for `O=C(NC1CC1)c1cccc(-c2ccc3c(NC(=O)C4CC4)n[nH]c3c2)c1` with SYK (human) (enter value)
output: 100

The reported numbers originate from the kinase profiling compilation of Christmann-Franck et al. (2016).
